microsomal CLint: recorded values
assay-name: Human liver microsome metabolic stability
Format: in vitro ADME
details: microsomes, pH 7.4, 1 μM compound, 0.5 mg/mL protein, NADPH, read-out: Human liver microsome experiment CLint
Value and unit, in that order.

[
  {
    "compound": "CCCCCCCCCCCCCCCCOCCCOP(=S)(CO[C@H](C)Cn1cnc2c(N)ncnc21)OCOC(=O)OC(C)C (stereo partly drawn)",
    "microsomal CLint": "116 µL/min/mg"
  }
]

I have this compound here, CCCCCCCCCCCCCCCCOCCCOP(=S)(CO[C@H](C)Cn1cnc2c(N)ncnc21)N[C@@H](C)C(=O)OC(C)C (stereo partly drawn) , and I need its recorded microsomal CLint.
12.9 µL/min/mg

Fill blank: measured microsomal CLint of the compound CCCCCCCCCCCCCCCCOCCCOP(O)(=S)CO[C@H](C)Cn1cnc2c(N)ncnc21 (stereo partly drawn) is ____.
45.6 µL/min/mg
